Target: T1, extracellular domain of activin receptor type IIB (ActRIIBecd), biotinylated (Homo sapiens (Human), UniProt Q13705 27-117, amino-biotinylated with amine-PEG3-Biotin)
T1 construct: immobilised on a streptavidin-coated sensor chip; also called biotinylated ActRIIBecd; extracellular domain of ActRIIB
T1 sequence: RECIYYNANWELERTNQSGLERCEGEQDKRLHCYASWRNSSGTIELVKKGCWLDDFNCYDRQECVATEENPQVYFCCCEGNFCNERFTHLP
Experiment: BIAcore SPR as Example 5 (method not restated); SD ±3.15 nM
Bridges are numbered along the chain shown (N, C = ends).
Would you mind telling me the reported pKd of each entry?
Give bare numbers, as −log10 of the molar value.

binder	pKd
SEQ ID NO: 284, cysteine pairs C8-C9^a (designed binder, disulfides C8-C9 (intra)) NSKIPKACCVPTELSAISMLYLDENEKVVLKNYQDMVVEGCGCRAQAKHKQRKRLKSSCKRHPLYVDFSDVGWNDWIVAPPGYHAFYCHGECPFPLADHLNSTNHAIVQTLVNSV	7.50

// below: pKd requested for another binder
Consider the binder shown here: SEQ ID NO: 242, cysteine pairs C29-C30^a (designed binder, disulfide 29-30) GQAKRKGYKRLKSSCKRHPLYNSKDPKACCVPTELSAPSPLYLDENEKPVLKNYQDMVVHGCGCR What is its recorded pKd? 7.31
